Target: Thyroid hormone receptor alpha (Homo sapiens)
Sequence (P10827 whole entry): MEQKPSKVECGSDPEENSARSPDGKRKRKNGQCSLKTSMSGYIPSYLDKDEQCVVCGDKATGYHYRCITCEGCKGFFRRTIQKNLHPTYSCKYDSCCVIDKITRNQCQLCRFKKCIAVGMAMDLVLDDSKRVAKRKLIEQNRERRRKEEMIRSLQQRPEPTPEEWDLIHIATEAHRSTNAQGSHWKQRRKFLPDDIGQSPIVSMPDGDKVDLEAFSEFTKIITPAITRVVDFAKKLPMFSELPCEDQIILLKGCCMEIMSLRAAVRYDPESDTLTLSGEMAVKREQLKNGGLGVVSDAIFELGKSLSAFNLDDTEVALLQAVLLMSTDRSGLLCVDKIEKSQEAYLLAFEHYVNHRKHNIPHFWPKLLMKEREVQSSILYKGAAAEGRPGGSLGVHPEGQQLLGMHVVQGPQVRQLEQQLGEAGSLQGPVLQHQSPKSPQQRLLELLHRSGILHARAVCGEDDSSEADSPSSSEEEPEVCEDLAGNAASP
Assay: TRalpha-Binding Assay and Thyroid Response Element (TRAFalpha1) Reporter Assay.
Details: pH 7; 4 °C
From the text: EC50 is the concentration of compound required to inhibit 50% of T3-induced TRalpha-activation in CHOK1 cells stably transfected with hTRalpha using alkaline phosphatase reporter assay.
quantity.name: EC50 (µM)
Enter your answer as a number in µM; do not include the unit.

Thyroid hormone receptor alpha (Homo sapiens) EC50 of CC(C)c1cc(Oc2c(Br)cc(CCC(=O)O)cc2Br)cc(/C=C/c2ccncc2)c1O is 0.032
